experiment: Toxicity in Artemia salina
Type: organism-based
test settings: in vivo
measurement kind: LC50 (µg/mL)

INSERT INTO results (molecule, measurement_kind, observed) VALUES
  ('Oc1cc(O)cc(/C=C/c2ccc(O)c(O)c2)c1', 'LC50', 278),
  ('Oc1cc(O)cc(C2c3c(/C=C/c4ccc(O)c(O)c4)cc(O)cc3OC2c2ccc(O)c(O)c2)c1 (stereo not drawn)', 'LC50', 389),
  ('Oc1ccc(/C=C/c2cc(O)cc3c2[C@H](c2cc(O)cc(O)c2)[C@@H](c2ccc(O)c(O)c2)O3)cc1', 'LC50', 488);
